Read-out record for UniProt P23687: pIC50
Sequence (P23687 whole entry): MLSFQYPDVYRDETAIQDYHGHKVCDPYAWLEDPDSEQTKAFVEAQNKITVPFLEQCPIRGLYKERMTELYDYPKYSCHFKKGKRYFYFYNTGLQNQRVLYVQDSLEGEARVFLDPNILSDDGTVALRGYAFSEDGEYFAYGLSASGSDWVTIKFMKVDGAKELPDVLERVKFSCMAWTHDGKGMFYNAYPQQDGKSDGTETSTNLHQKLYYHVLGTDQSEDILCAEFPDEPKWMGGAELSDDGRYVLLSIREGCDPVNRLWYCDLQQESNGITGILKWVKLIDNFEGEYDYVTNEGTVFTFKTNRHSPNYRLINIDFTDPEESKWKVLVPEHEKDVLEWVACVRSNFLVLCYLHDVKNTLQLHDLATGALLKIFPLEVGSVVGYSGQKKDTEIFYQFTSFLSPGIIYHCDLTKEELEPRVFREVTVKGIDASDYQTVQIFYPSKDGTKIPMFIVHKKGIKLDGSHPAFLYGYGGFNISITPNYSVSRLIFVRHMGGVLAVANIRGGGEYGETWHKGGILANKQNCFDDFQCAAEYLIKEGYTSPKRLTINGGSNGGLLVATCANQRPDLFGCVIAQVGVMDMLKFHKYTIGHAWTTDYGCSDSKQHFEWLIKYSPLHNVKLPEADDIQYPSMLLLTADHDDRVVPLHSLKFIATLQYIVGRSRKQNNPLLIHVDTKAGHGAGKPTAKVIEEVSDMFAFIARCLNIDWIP
pIC50: −log10 of the molar value.
MEASUREMENT_TYPE: pIC50

{"columns": ["COMPOUND", "pIC50"],
 "data": [
  ["O=C(c1cccnc1)[C@@H]1CCCN1C(=O)[C@@H]1CCCN1C(=O)CCCc1ccccc1", 5.64],
  ["O=C(c1ncc[nH]1)[C@@H]1CCCN1C(=O)[C@@H]1CCCN1C(=O)CCCc1ccccc1", 8.05],
  ["O=C(c1nc2ccccc2o1)[C@@H]1CCCN1C(=O)[C@@H]1CCCN1C(=O)CCCc1ccccc1", 8.25],
  ["O=C([C@@H]1CCCN1C(=O)CCCc1ccccc1)N1CCCC1C(O)c1nccs1 (some centres not stated)", 4.79]
]}

(P) O=C(c1ccc[nH]1)[C@@H]1CCCN1C(=O)[C@@H]1CCCN1C(=O)CCCc1ccccc1
(Q) O=C(c1cncnc1)[C@@H]1CCCN1C(=O)[C@@H]1CCCN1C(=O)CCCc1ccccc1
(R) O=C(c1nc2ncccc2o1)[C@@H]1CCCN1C(=O)[C@@H]1CCCN1C(=O)CCCc1ccccc1
Q) // ranking: key=pIC50, reverse=True I would appreciate it if you listed the labels in the requested order.
A) R, Q, P
